Biological target: acetylcholine muscarinic M1 receptor (Homo sapiens, UniProt P11229)
Construct: expressed in transfected cells; host or cells: CHOnfat (CHO cells, Geneticin-selected) expressing hM1
Sequence (P11229 whole entry): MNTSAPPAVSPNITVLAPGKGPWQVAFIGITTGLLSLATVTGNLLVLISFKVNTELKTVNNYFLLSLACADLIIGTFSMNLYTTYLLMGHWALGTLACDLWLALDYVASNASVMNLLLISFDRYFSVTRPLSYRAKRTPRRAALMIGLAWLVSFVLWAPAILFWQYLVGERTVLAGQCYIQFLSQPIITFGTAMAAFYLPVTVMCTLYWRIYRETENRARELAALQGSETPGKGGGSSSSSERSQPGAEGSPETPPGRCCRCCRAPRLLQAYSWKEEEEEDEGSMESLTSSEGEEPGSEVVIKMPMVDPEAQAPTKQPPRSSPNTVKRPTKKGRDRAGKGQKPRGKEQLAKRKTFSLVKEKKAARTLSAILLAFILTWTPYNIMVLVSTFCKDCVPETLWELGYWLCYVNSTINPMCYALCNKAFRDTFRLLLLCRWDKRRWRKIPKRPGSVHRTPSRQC
Assay: muscarinic FLIPR assay: intracellular calcium in CHOnfat/hM1 cells with EC20 acetylcholine (positive allosteric modulation)
Type: cell-based
Protocol: The assay studies the effect of one or several concentrations of test compounds on basal or acetylcholine-stimulated Ca^2+ levels using FLIPR. Compounds are prepared and subjected to a preincubation period of 4 min. Thereafter, a single EC20 concentration of acetylcholine is added to each well (3 nM final). The intracellular Ca^2+ level of each sample is measured and compared to an acetylcholine control to determine any modulatory activity. […]
Measurement Label: EC50 (µM)
Kindly provide the numeric value in µM only, without the unit symbol.

IN: Please provide the recorded EC50 for CN(C)C(=O)Oc1ccc(Cc2cc3c(=O)n([C@H]4CCCC[C@@H]4O)cnc3c3c2C=CCN3C)cc1 , tested on acetylcholine muscarinic M1 receptor (Homo sapiens, UniProt P11229).
OUT: 0.025

The origin of these recorded values is patent US9284312B2.
